// reported Enzyme Activity Endpoint Assay: Fab′2 for each item listed
Biological target: pooled human IgG (human IgG1, 2, 3 and 4)
Report only the number, with the unit ng/µL understood.

PRT-493 (protein) MVTSVWTKGVTPPTNFTYGEDVLHAPYVANQGWYDITKTFNGKDNLLCGAATAGNMLHWWFDQNKEQIENYLKKHPEKQKIIFNNQELFDLKAAIDTKDSQLDSKLFEYFKEKAFPYLSTKHLGVFPDHVIDMFINGYRLSLTNHGPTPVKRGSKDKRGGIFDAVFTRGVQSKLLTNRHDLKNKTLKEISDLIKQELTEGKALGISHTYANVRINHVINLWGADFDAEGNLEAIYVTDSDTNASIGMKKYFVGVNSNGKVAISAKEIEEDNIGAQVLGLFTLSTGQDIWNQTNLEHHHHHH : 1170

Here's the next entry for you.
What value of Enzyme Activity Endpoint Assay: Fab′2 has been recorded for this entry: PRT-483 (protein) MVTSVWTKGVTPPTDFIKGEDVFHAPYKAGQGWYDITKTFNGKDNLLCGAATAGNMLHWWFDQNKDQIEAYLKEHPEKQKIIFNNQELFDLKAAIDTKDDQTNSKLFEYFKEKAFPYLSTKHLGVFPDHVLDMFINGYRLSLTNHGPTPVKEGSKDKRGGIFDAVFTRGVQSKLLTSRHDLKNKTLKEISDLIKQELTEGKALALSHTYANVRINHVINLWGADFDSNGNLEAIYVTDSDTNASIGMKKYFVGVNSAGKVAISAKEIEDDNIGAQVLGLFTLSTGQDIWNQTNLEHHHHHH 1260
